Hi there, I'd appreciate the recorded MIC 90% for every entry that follows.
Tested on: VanC enterococci (22)
protocol_text: MIC broth microdilution, vanC-carrying enterococci
cond: VanC enterococci (22)
Don't forget the unit after the number, please.

Prompt: What value of MIC 90% has been reported for the following compound? CNC(CC(C)C)C(=O)NC1C(=O)NC(CC(N)=O)C(=O)NC2C(=O)NC3C(=O)NC(C(=O)NC(C(=O)O)c4cc(O)c(CNCCOCCOCC[N+](C)(C)C)c(O)c4-c4cc3ccc4O)C(O)c3ccc(c(Cl)c3)Oc3cc2cc(c3OC2OC(CO)C(O)C(O)C2OC2CC(C)(NCc3ccc(-c4ccc(Cl)cc4)cc3)C(O)C(C)O2)Oc2ccc(cc2Cl)C1O (stereo not shown)
Completion: 1 µg/mL

Prompt: Please do the same for CNC(CC(C)C)C(=O)NC1C(=O)NC(CC(N)=O)C(=O)NC2C(=O)NC3C(=O)NC(C(=O)NC(C(=O)NCCOCCOCCN(C)C)c4cc(O)cc(O)c4-c4cc3ccc4O)C(O)c3ccc(c(Cl)c3)Oc3cc2cc(c3OC2OC(CO)C(O)C(O)C2OC2CC(C)(NCc3ccc(-c4ccc(Cl)cc4)cc3)C(O)C(C)O2)Oc2ccc(cc2Cl)C1O (stereo not shown) as well.
Completion: 0.25 µg/mL

Prompt: Continue with CNC(CC(C)C)C(=O)NC1C(=O)NC(CC(N)=O)C(=O)NC2C(=O)NC3C(=O)NC(C(=O)NC(C(=O)O)c4cc(O)c(CNCCOCCOCCN)c(O)c4-c4cc3ccc4O)C(O)c3ccc(c(Cl)c3)Oc3cc2cc(c3OC2OC(CO)C(O)C(O)C2OC2CC(C)(NCc3ccc(-c4ccc(Cl)cc4)cc3)C(O)C(C)O2)Oc2ccc(cc2Cl)C1O (stereo not shown)
Completion: 0.5 µg/mL

Prompt: Repeat with CCCCCCCCCCNCCNC1(C)CC(OC2C(Oc3c4cc5cc3Oc3ccc(cc3Cl)C(O)C3NC(=O)C(NC(=O)C5NC(=O)C(CC(N)=O)NC(=O)C(NC(=O)C(CC(C)C)NC)C(O)c5ccc(c(Cl)c5)O4)c4ccc(O)c(c4)-c4c(cc(O)c(CNCCOCCOCC[N+](C)(C)C)c4O)C(C(=O)O)NC3=O)OC(CO)C(O)C2O)OC(C)C1O (stereo not shown)
Completion: 0.25 µg/mL
